Property: viability at 72 h, 1000 µM; scope: individual compounds
Experimental Protocol: MTT cell proliferation assay, melanoblasts
Type: cell-based, human
Applied Conditions: human, 1000 μM, MTT, 72 h, read-out: melanoblast proliferation rate after 72 hours
Peptide text beside a SMILES is read from it.
Reported Endpoint: viability at 72 h, 1000 µM (%)

• CCCCCCCCCCCCCCCC(=O)N[C@@H](Cc1ccc(O)cc1)C(=O)N[C@@H](CCCNC(=N)N)C(=O)N[C@@H](CO)C(=O)N[C@@H](CCCNC(=N)N)C(=O)N[C@@H](CCCCN)C(=O)N[C@@H](Cc1ccc(O)cc1)C(=O)N[C@@H](CO)C(=O)N[C@@H](CO)C(=O)N[C@@H](Cc1c[nH]c2ccccc12)C(=O)N[C@@H](Cc1ccc(O)cc1)C(N)=O [P4A, Palmitoyl-YRSRKYSSWY-amide] (HELM PEPTIDE1{[CCCCCCCCCCCCCCCC(=O)[*:2]].Y.R.S.R.K.Y.S.S.W.Y.[am]}$$$$V2.0) = 95
• CCCCCCCCCCCCCCCC(=O)N[C@@H](Cc1ccc(O)cc1)C(=O)N[C@@H](CCCNC(=N)N)C(=O)N[C@@H](CO)C(=O)N[C@@H](CCCNC(=N)N)C(=O)N[C@@H](CCCCN)C(=O)N[C@H](Cc1ccc(O)cc1)C(=O)N[C@@H](CO)C(=O)N[C@@H](CO)C(=O)N[C@@H](Cc1c[nH]c2ccccc12)C(=O)N[C@@H](Cc1ccc(O)cc1)C(N)=O [P4B, Palmitoyl-YRSRK[*Y]SSWY-amide] (HELM PEPTIDE1{[CCCCCCCCCCCCCCCC(=O)[*:2]].Y.R.S.R.K.[dY].S.S.W.Y.[am]}$$$$V2.0) = 94

###

Experimental Protocol: Trypan blue cell viability, 7 days, fibroblasts
Assay type: cell-based
Applied Conditions: human, 50 μM, relative to control, read-out: fibroblast viability after 7 days
Peptide text beside a SMILES is read from it.
Reported Endpoint: viability at 168 h, 50 µM (%)

• CCCCCCCCCCCCCCCC(=O)N[C@@H](Cc1ccc(O)cc1)C(=O)N[C@@H](CCCNC(=N)N)C(=O)N[C@@H](CO)C(=O)N[C@@H](CCCNC(=N)N)C(=O)N[C@@H](CCCCN)C(=O)N[C@@H](Cc1ccc(O)cc1)C(=O)N[C@@H](CO)C(=O)N[C@@H](CO)C(=O)N[C@@H](Cc1c[nH]c2ccccc12)C(=O)N[C@@H](Cc1ccc(O)cc1)C(N)=O [P4A, Palmitoyl-YRSRKYSSWY-amide] (HELM PEPTIDE1{[CCCCCCCCCCCCCCCC(=O)[*:2]].Y.R.S.R.K.Y.S.S.W.Y.[am]}$$$$V2.0) = 98
• CCCCCCCCCCCCCCCC(=O)N[C@@H](Cc1ccc(O)cc1)C(=O)N[C@@H](CCCNC(=N)N)C(=O)N[C@@H](CO)C(=O)N[C@@H](CCCNC(=N)N)C(=O)N[C@@H](CCCCN)C(=O)N[C@H](Cc1ccc(O)cc1)C(=O)N[C@@H](CO)C(=O)N[C@@H](CO)C(=O)N[C@@H](Cc1c[nH]c2ccccc12)C(=O)N[C@@H](Cc1ccc(O)cc1)C(N)=O [P4B, Palmitoyl-YRSRK[*Y]SSWY-amide] (HELM PEPTIDE1{[CCCCCCCCCCCCCCCC(=O)[*:2]].Y.R.S.R.K.[dY].S.S.W.Y.[am]}$$$$V2.0) = 97.6

###

Property: viability at 168 h, 100 µM; scope: individual substances
Experimental Protocol: Trypan blue cell viability, 7 days, fibroblasts
Assay type: cell-based
Applied Conditions: human, 100 μM, relative to control, read-out: fibroblast viability after 7 days
Ends that are not written are not given here.
Reported Endpoint: viability at 168 h, 100 µM

- YRSRKYSSWY [decapeptide-12, YRSRKYSSWY]: 97.2%
- Ac-YRSRKYSSWY-NH2 [P4C, Acetyl-YRSRKYSSWY-amide]: 97.4%

###

Experimental Protocol: MTT cell proliferation assay, fibroblasts
Type: cell-based, human
Applied Conditions: human, 500 μM, MTT, 72 h, read-out: fibroblast proliferation rate after 72 hours
Peptide text beside a SMILES is read from it.
Property: viability at 72 h, 500 µM; scope: individual compounds
Reported Endpoint: viability at 72 h, 500 µM (%)

- CCCCCCCCCCCCCCCC(=O)N[C@@H](Cc1ccc(O)cc1)C(=O)N[C@@H](CCCNC(=N)N)C(=O)N[C@@H](CO)C(=O)N[C@@H](CCCNC(=N)N)C(=O)N[C@@H](CCCCN)C(=O)N[C@H](Cc1ccc(O)cc1)C(=O)N[C@@H](CO)C(=O)N[C@@H](CO)C(=O)N[C@@H](Cc1c[nH]c2ccccc12)C(=O)N[C@@H](Cc1ccc(O)cc1)C(N)=O [P4B, Palmitoyl-YRSRK[*Y]SSWY-amide] (HELM PEPTIDE1{[CCCCCCCCCCCCCCCC(=O)[*:2]].Y.R.S.R.K.[dY].S.S.W.Y.[am]}$$$$V2.0): 96
- CCCCCCCCCCCCCCCC(=O)N[C@@H](Cc1ccc(O)cc1)C(=O)N[C@@H](CCCNC(=N)N)C(=O)N[C@@H](CO)C(=O)N[C@@H](CCCNC(=N)N)C(=O)N[C@@H](CCCCN)C(=O)N[C@@H](Cc1ccc(O)cc1)C(=O)N[C@@H](CO)C(=O)N[C@@H](CO)C(=O)N[C@@H](Cc1c[nH]c2ccccc12)C(=O)N[C@@H](Cc1ccc(O)cc1)C(N)=O [P4A, Palmitoyl-YRSRKYSSWY-amide] (HELM PEPTIDE1{[CCCCCCCCCCCCCCCC(=O)[*:2]].Y.R.S.R.K.Y.S.S.W.Y.[am]}$$$$V2.0): 96

###

Property: viability at 168 h, 300 µM; scope: individual molecules
Experimental Protocol: Trypan blue cell viability, 7 days, fibroblasts
Assay type: cell-based
Applied Conditions: human, 300 μM, relative to control, read-out: fibroblast viability after 7 days
Peptide text beside a SMILES is read from it.
Reported Endpoint: viability at 168 h, 300 µM (%)

• CCCCCCCCCCCCCCCC(=O)N[C@@H](Cc1ccc(O)cc1)C(=O)N[C@@H](CCCNC(=N)N)C(=O)N[C@@H](CO)C(=O)N[C@@H](CCCNC(=N)N)C(=O)N[C@@H](CCCCN)C(=O)N[C@@H](Cc1ccc(O)cc1)C(=O)N[C@@H](CO)C(=O)N[C@@H](CO)C(=O)N[C@@H](Cc1c[nH]c2ccccc12)C(=O)N[C@@H](Cc1ccc(O)cc1)C(N)=O [P4A, Palmitoyl-YRSRKYSSWY-amide] (HELM PEPTIDE1{[CCCCCCCCCCCCCCCC(=O)[*:2]].Y.R.S.R.K.Y.S.S.W.Y.[am]}$$$$V2.0) = 96.6
• CCCCCCCCCCCCCCCC(=O)N[C@@H](Cc1ccc(O)cc1)C(=O)N[C@@H](CCCNC(=N)N)C(=O)N[C@@H](CO)C(=O)N[C@@H](CCCNC(=N)N)C(=O)N[C@@H](CCCCN)C(=O)N[C@H](Cc1ccc(O)cc1)C(=O)N[C@@H](CO)C(=O)N[C@@H](CO)C(=O)N[C@@H](Cc1c[nH]c2ccccc12)C(=O)N[C@@H](Cc1ccc(O)cc1)C(N)=O [P4B, Palmitoyl-YRSRK[*Y]SSWY-amide] (HELM PEPTIDE1{[CCCCCCCCCCCCCCCC(=O)[*:2]].Y.R.S.R.K.[dY].S.S.W.Y.[am]}$$$$V2.0) = 96.5

###

Property: viability at 72 h, 3 µM; scope: individual substances
Experimental Protocol: MTT cell proliferation assay, melanoblasts
Assay type: cell-based, human
Applied Conditions: human, 3 μM, MTT, 72 h, read-out: melanoblast proliferation rate after 72 hours
Ends that are not written are not given here.
Reported Endpoint: viability at 72 h, 3 µM

* Ac-YRSRKYSSWY-NH2 [P4C, Acetyl-YRSRKYSSWY-amide] | 100%
* YRSRKYSSWY [decapeptide-12, YRSRKYSSWY] | 100%

###

Experimental Protocol: Trypan blue cell viability, 7 days, epidermal progenitors
Format: cell-based
Applied Conditions: human, 100 μM, relative to control, read-out: epidermal progenitor viability after 7 days
Peptide text beside a SMILES is read from it.
Property: viability at 168 h, 100 µM; scope: individual compounds
Reported Endpoint: viability at 168 h, 100 µM (%)

- CCCCCCCCCCCCCCCC(=O)N[C@@H](Cc1ccc(O)cc1)C(=O)N[C@@H](CCCNC(=N)N)C(=O)N[C@@H](CO)C(=O)N[C@@H](CCCNC(=N)N)C(=O)N[C@@H](CCCCN)C(=O)N[C@H](Cc1ccc(O)cc1)C(=O)N[C@@H](CO)C(=O)N[C@@H](CO)C(=O)N[C@@H](Cc1c[nH]c2ccccc12)C(=O)N[C@@H](Cc1ccc(O)cc1)C(N)=O [P4B, Palmitoyl-YRSRK[*Y]SSWY-amide] (HELM PEPTIDE1{[CCCCCCCCCCCCCCCC(=O)[*:2]].Y.R.S.R.K.[dY].S.S.W.Y.[am]}$$$$V2.0): 97
- CCCCCCCCCCCCCCCC(=O)N[C@@H](Cc1ccc(O)cc1)C(=O)N[C@@H](CCCNC(=N)N)C(=O)N[C@@H](CO)C(=O)N[C@@H](CCCNC(=N)N)C(=O)N[C@@H](CCCCN)C(=O)N[C@@H](Cc1ccc(O)cc1)C(=O)N[C@@H](CO)C(=O)N[C@@H](CO)C(=O)N[C@@H](Cc1c[nH]c2ccccc12)C(=O)N[C@@H](Cc1ccc(O)cc1)C(N)=O [P4A, Palmitoyl-YRSRKYSSWY-amide] (HELM PEPTIDE1{[CCCCCCCCCCCCCCCC(=O)[*:2]].Y.R.S.R.K.Y.S.S.W.Y.[am]}$$$$V2.0): 96.9
